assay: Thermo Scientific Acclaim RSLC 120 C18, 100 × 2.1 mm, 2.2 µm, 30 °C; A: 90% water + 10% methanol + 0.01% formic acid + 5 mM ammonium formate; B: methanol + 0.01% formic acid + 5 mM ammonium formate; gradient (min/%B) 0.1/1 3/39 14/99.9 16/99.9; conditions: stereoisomer not certain
Readout kind: LC retention time (min)
Give your result in min as a bare value.

Worked cases, answers included:
Compound | Unit info | Meas value
CC(CN1c2ccccc2Sc2ccc(S(=O)(=O)N(C)C)cc21)N(C)C (stereo not given) | min | 7.01
CCCCOc1ccc(C(=O)OCCN(CC)CC)cc1 | min | 11.3
COc1cccc(C2(O)CCCCC2C[N+](C)(C)[O-])c1 (stereo not given) | min | 5.24

Prompt: GET /values?readout=LC retention time&item= COc1cc(C(=O)OCCCN(C)CCN(C)CCCOC(=O)c2cc(OC)c(OC)c(OC)c2)cc(OC)c1OC
Completion: 7.54

Prompt: Dear colleague, I am looking for the recorded LC retention time of the following compound: CCCCc1oc2ccc(NS(C)(=O)=O)cc2c1C(=O)c1ccc(OCCCN(CCCC)CCCC)cc1
Completion: 10.1

Prompt: Consider the compound CN1C2CCC1CC(OC(=O)c1c[nH]c3ccccc13)C2 (stereo not given) and give its measured LC retention time.
Completion: 5.09

Prompt: Look up LC retention time: CN1CCN(C)C1=O
Completion: 3.53

Prompt: Query: LC retention time; subject: CC(C)(C)C(NC(=O)c1nn(CC2CCCCC2)c2ccccc12)C(N)=O (stereo not given)
Completion: 11.7
